The entries below are paired with their reported EC50.
measurement-target: STAT6 (Homo sapiens, UniProt P42226)
Construct: stably transfected HaCaT keratinocyte cell line, which expresses NanoLuc luciferase reporter gene under the transcriptional control of the STAT6 responsive promoter; endogenous in cells; host or cells: HaCaT keratinocyte reporter cell line (stably transfected with a NanoLuc reporter)
run-description: STAT6 Reporter Luciferase Assay (IL-13 stimulated HaCaT keratinocyte NanoLuc reporter cells)
Format: cell-based
measurement-context: IL-13 stimulated HaCaT STAT6 NanoLuc reporter cells; read-out: Reporter EC50
Answer with a number only, understood to be in nM.

The following compounds have reported results that may help.
# compound, uom, observed-measurement
rows = [
    ("C[C@H]1CN(c2ccc(C(=O)N(C)C)cn2)Cc2c(C(=O)NCc3ccc(NC(=O)N(C)C)cc3)nn(C3(C)CC3)c21 (single isomer, unassigned)", "nM", 1),
    ("CC(C)c1nc(C(=O)NCc2ccc(NC(=O)N(C)C)cc2)c2n1C(C)CN(c1ccc(C(=O)N(C)C)cc1)C2 (single isomer, unassigned) [Example 538]", "nM", 0.2),
]

# next compound below
Would you mind telling me what EC50 value was observed for CC(C)n1nc(C(=O)NCc2ccc(NC(=O)N3CCNCC3)c(Cl)c2)c2c1[C@@H](C)CN(c1ccc(C(=O)N(C)C)cc1)C2 ?
3

###

measurement-target: STAT6 (Homo sapiens, UniProt P42226)
Construct: stably transfected HaCaT keratinocyte cell line, which expresses NanoLuc luciferase reporter gene under the transcriptional control of the STAT6 responsive promoter; endogenous in cells; host or cells: HaCaT keratinocyte reporter cell line (stably transfected with a NanoLuc reporter)
run-description: STAT6 Reporter Luciferase Assay (IL-13 stimulated HaCaT keratinocyte NanoLuc reporter cells)
Assay type: cell-based
measurement-context: STAT6 NanoLuc luciferase reporter, IL-13 stimulated HaCaT keratinocyte cells; read-out: Reporter EC50
Below is a list of entries, each paired with its recorded pEC50 value.
Just so you know, pEC50 here is -log10 of the concentration in molar units; reply with that number alone.

// known answers, use as guide
# compound, observed-measurement
measured = [
    ("CC(C)n1nc(C(=O)NCc2ccc(NC(=O)N3CCC4(COC4)C3)cc2)c2c1CCN(c1ccc(C(=O)N(C)C)cn1)C2", 7.51),
    ("CC(C)n1nc(C(=O)NCc2ccc(NC(=O)N3CCC(C(F)F)C3)cc2)c2c1CCN(c1ccc(C(=O)N(C)C)cn1)C2 (racemic)", 8.22),
]

// below: pEC50 requested for another compound
What pEC50 appears in the records for this compound with STAT6 (Homo sapiens, UniProt P42226)? Cc1ccn(-c2ccc(N3CCc4c(c(C(=O)NCc5ccc(NC(=O)N(C)C)cc5)nn4C(C)C)C3)nc2)n1
5.93

###

Tested on: CCL17 secretion in peripheral human whole blood
run-description: Human Whole Blood (HWB) CCL17 TR-FRET Assay (IL-13 stimulated CCL17 secretion)
Assay type: cell-based
measurement-context: human whole blood, IL-13 stimulated, 48 hours
reported-metric: pIC50
Notebook: values listed as pIC50 are -log10 of the concentration (mol/L).

Known results for compounds:
# compound, pIC50
data = [
    ("CCc1nc(C(=O)NCc2ccc(NC(=O)N(C)C)cc2)c2n1C(C)CN(c1ccc(C(=O)N(C)C)cn1)C2 (single isomer, unassigned) [Example 232]", 8.30),
    ("CC(C)n1nc(C(=O)NCc2ccc(NC(=O)N(C)C)cc2)c2c1C(C(F)F)CN(c1ccc(C(=O)N(C)C)cn1)C2 (single isomer, unassigned) [Example 493]", 6.69),
]

Now for another entry.
Return reported pIC50; argument: CCn1nc(C(=O)NCc2ccc(NC(=O)N(C)C)cc2)c2c1C(C(F)(F)F)CN(c1ccc(C(=O)N(C)C)cn1)C2 (single isomer, unassigned) [Example 304]
8.40

###

Each entry below lists one item and its recorded EC50 value.
measurement-target: STAT6 (Homo sapiens, UniProt P42226)
Construct: stably transfected HaCaT keratinocyte cell line, which expresses NanoLuc luciferase reporter gene under the transcriptional control of the STAT6 responsive promoter; endogenous in cells; host or cells: HaCaT keratinocyte reporter cell line (stably transfected with a NanoLuc reporter)
Sequence (P42226 1-847): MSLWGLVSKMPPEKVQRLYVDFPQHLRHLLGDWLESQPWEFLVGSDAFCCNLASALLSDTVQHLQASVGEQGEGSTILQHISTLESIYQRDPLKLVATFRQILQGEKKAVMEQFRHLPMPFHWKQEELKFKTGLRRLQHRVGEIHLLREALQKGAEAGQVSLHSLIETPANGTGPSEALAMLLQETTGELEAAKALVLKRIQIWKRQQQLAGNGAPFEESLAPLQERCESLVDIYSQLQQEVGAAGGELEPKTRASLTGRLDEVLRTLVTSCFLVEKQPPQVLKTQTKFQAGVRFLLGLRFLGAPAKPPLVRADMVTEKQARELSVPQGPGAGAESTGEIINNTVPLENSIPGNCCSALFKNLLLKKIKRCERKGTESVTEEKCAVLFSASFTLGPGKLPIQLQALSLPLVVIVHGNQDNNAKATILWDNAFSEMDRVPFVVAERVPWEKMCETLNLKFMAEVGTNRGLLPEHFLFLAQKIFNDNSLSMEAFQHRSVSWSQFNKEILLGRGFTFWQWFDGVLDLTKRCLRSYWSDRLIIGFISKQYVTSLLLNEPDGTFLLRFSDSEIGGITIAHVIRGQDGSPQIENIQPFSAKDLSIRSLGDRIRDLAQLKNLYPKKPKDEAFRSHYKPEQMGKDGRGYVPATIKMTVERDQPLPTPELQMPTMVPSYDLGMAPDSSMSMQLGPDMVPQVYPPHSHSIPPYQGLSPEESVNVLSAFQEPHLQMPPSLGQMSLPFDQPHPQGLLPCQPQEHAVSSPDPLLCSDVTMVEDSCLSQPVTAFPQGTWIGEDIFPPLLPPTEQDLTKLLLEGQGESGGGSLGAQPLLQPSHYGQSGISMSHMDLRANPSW
run-description: STAT6 Reporter Luciferase Assay (IL-13 stimulated HaCaT keratinocyte NanoLuc reporter cells)
Type: cell-based
measurement-context: IL-13 stimulated HaCaT STAT6 NanoLuc reporter cells; read-out: Reporter EC50
Text: Pharmacological measurements of STAT6 transcriptional activity through the IL-13-IL-13 receptor/IL-4 receptor pathway were made with a stably transfected HaCaT keratinocyte cell line, which expresses NanoLuc luciferase reporter gene under the transcriptional control of the STAT6 responsive promoter for IL-13Ra2. The readout of the STAT6 activity utilized Promega Nano-Glo Luciferase assay kit. […]
Numeric only. Scale: nM

Consider the worked cases shown below.
# chemical-structure, EC50 [nM]
measured = [
    ("CC(C)n1nc(C(=O)NCc2ccc(NC(=O)N(C)C)cc2)c2c1CCN(c1ccc(C(=O)N3CCCOCC3)cn1)C2", 164),
    ("CC(C)n1nc(C(=O)NCc2ccc(NC(=O)N3CCN(C)[C@H](C)C3)c(F)c2)c2c1[C@@H](C)CN(c1ccc(C(=O)N(C)C)cc1)C2", 1),
    ("CC(C)n1nc(C(=O)NCc2ccc(NC(=O)N(C)C)cc2)c2c1CCN(c1ccc(C(=O)N3CC(O)C3)cn1)C2", 276),
    ("CC(C)n1nc(C(=O)NCc2ccc(NC(=O)N(C)C)cc2)c2c1CCN(c1ccc(C(=O)N3CCc4ccccc4C3)cn1)C2", 10),
    ("CCn1nc(C(=O)NCc2ccc(C(=O)NC)cc2)c2c1[C@@H](C)CN(c1ncc(N3CCCC3=O)cn1)C2", 26),
    ("CC(C)n1nc(C(=O)NCc2ccc(NC(=O)N3CCC[C@H](N(C)C)C3)c(F)c2)c2c1[C@@H](C)CN(c1ccc(C(=O)N(C)C)cc1)C2", 3),
]

// EC50 lookup, key: CCn1nc(C(=O)NCc2ccc(C(=O)NC)cc2)c2c1[C@@H](C)CN(c1ccc(N3CCCC3=O)cn1)C2
8

How about CC(C)n1nc(C(=O)NCc2ccc(NC(=O)N3CCNCC3)cc2F)c2c1[C@@H](C)CN(c1ccc(C(=O)N(C)C)cc1)C2 ?
3

Ok, now CC(C)n1nc(C(=O)NCc2ccc(NC(=O)N3CCNCC3)cn2)c2c1[C@@H](C)CN(c1ccc(C(=O)N(C)C)cc1)C2
5

###

measurement-target: STAT6 (Homo sapiens, UniProt P42226)
Construct: stably transfected HaCaT keratinocyte cell line, which expresses NanoLuc luciferase reporter gene under the transcriptional control of the STAT6 responsive promoter; endogenous in cells; host or cells: HaCaT keratinocyte reporter cell line (stably transfected with a NanoLuc reporter)
run-description: STAT6 Reporter Luciferase Assay (IL-13 stimulated HaCaT keratinocyte NanoLuc reporter cells)
Format: cell-based
measurement-context: IL-13 stimulated HaCaT STAT6 NanoLuc reporter cells; read-out: Reporter EC50
Quick reference for EC50 among some compounds
Express the result in nM but write the number alone.

Known results for compounds:
# compound, uom, EC50
data = [
    ("CC(C)n1nc(C(=O)NCc2ccc(NC(=O)N3CCN4CCCC[C@H]4C3)c(F)c2)c2c1[C@@H](C)CN(c1ccc(C(=O)N(C)C)cc1)C2", "nM", 1),
    ("Cc1nn(C)c(=O)n1-c1ccc(N2Cc3c(C(=O)NCc4ccc(NC(=O)N5CCN(C)CC5)cc4)nn(C(C)C)c3[C@@H](C)C2)nc1", "nM", 3),
    ("CCC1Cc2c(c(C(=O)NCc3ccc(NC(=O)N(C)C)cc3)nn2C(C)C)CN1c1ccc(C(=O)N(C)C)cn1 (racemic) [Example 249]", "nM", 6),
    ("Cc1nn(C)c(=O)n1-c1ccc(N2Cc3c(C(=O)NCc4ccc(NC(=O)N(C)C)cc4)nn(C(C)C)c3[C@@H](C)C2)nc1", "nM", 2),
    ("CNC(=O)c1ccc(N2CCc3c(c(C(=O)NCc4ccc(NC(N)=O)cc4)nn3C(C)C)C2)nc1", "nM", 742),
    ("COC[C@@H]1CN(C(=O)Nc2ccc(CNC(=O)c3nn(C(C)C)c4c3CN(c3ccc(C(=O)N(C)C)cc3)C[C@@H]4C)cc2)CCN1", "nM", 0.5),
]

Which EC50 value belongs to CC(C)n1nc(C(=O)NCc2ccc(NC(=O)N(C)C)cc2)c2c1[C@@H](C)[C@H](C)N(c1ccc(C(=O)N(C)C)cn1)C2 (single isomer, unassigned) ?
0.2

Would you kindly repeat that for CN(C)C(=O)Nc1ccc(CNC(=O)c2nn(C3CCCOC3)c3c2CN(c2ccc(C(=O)N(C)C)cn2)CC3)cc1 (stereo not drawn) ?
22

Another: CC(C)n1nc(C(=O)NCc2ccc(NC(=O)N(C)C)cn2)c2c1C[C@H](C)N(c1ccc(C(=O)N(C)C)cn1)C2
5

Repeat for the following compound: CC(C)n1nc(C(=O)NCc2ccc(NC(=O)N3CCN(C)CC3)cc2)c2c1[C@@H](C)CN(c1ccc(-c3nncn3C)cn1)C2
4

Next entry: CN[C@@H]1CCCN(C(=O)Nc2ccc(CNC(=O)c3nn(C(C)C)c4c3CN(c3ccc(C(=O)N(C)C)cc3)C[C@@H]4C)cc2F)C1
2

Check CC(C)n1nc(C(=O)NCc2ccc(C(N)=O)cc2)c2c1[C@@H](C)CN(c1ncc(N3CCCC3=O)cn1)C2 too.
18

Same again, this time with CN(C)C(=O)Nc1ccc(CNC(=O)c2nn(CCC#N)c3c2CN(c2ccc(C(=O)N(C)C)cn2)CC3)cc1
287

Continue with CNC(=O)c1ccc(CNC(=O)c2nn(C(C)C)c3c2CN(c2ccc(C(=O)N(C)C)cn2)CC3C(F)(F)F)cc1 (single isomer, unassigned) [Example 357]
1

Now the compound CC(C)n1nc(C(=O)NCc2ccc(NC(=O)N3C[C@H]4CC[C@@H](C3)N4)c(F)c2)c2c1[C@@H](C)CN(c1ccc(C(=O)N(C)C)cc1)C2 (mixture of isomers)
1

How about this compound: CC(C)n1nc(C(=O)NCc2ccc(NC(=O)N3CC[C@H](N(C)C)C3)cc2)c2c1[C@@H](C)CN(c1ccc(C(=O)N(C)C)cc1)C2
1

# repeat for CC(C)n1nc(C(=O)NCc2ccc(NC(=O)N(C)C)cc2)c2c1CCN(c1ccc(C(=O)N3CCc4c(cnn4C)C3)cn1)C2
29

And for CCn1nc(C(=O)NCc2ccc(NC(=O)N(C)C)cc2)c2c1C(C(F)(F)F)CN(c1ncc(C(=O)N(C)C)cn1)C2 (single isomer, unassigned) [Example 465] ?
51.8

Next entry: CC(C)n1nc(C(=O)NCc2ccc(NC(=O)N3CCCN(C)CC3)c(F)c2)c2c1[C@@H](C)CN(c1ccc(C(=O)N(C)C)cn1)C2
2

One more compound: CCn1nc2c(c1C(=O)NCc1ccc(NC(=O)N(C)C)cc1)CN(c1ccc(C(=O)N(C)C)cn1)[C@H](C)[C@@H]2C (racemic)
1070

Also check CC(C)n1nc(C(=O)NCc2ccc(NC(=O)N3CCC4(CC3)CCN4C)cc2)c2c1[C@@H](C)CN(c1ccc(C(=O)N(C)C)cc1)C2
2

Can you handle CC(=O)N[C@@H]1CCN(C(=O)c2ccc(N3CCc4c(c(C(=O)NCc5ccc(NC(=O)N(C)C)cc5)nn4C(C)C)C3)nc2)C1 next?
934

Moving on to the next compound: CC(C)n1nc(C(=O)NCc2ccc(NC(=O)N(C)C)cc2)c2c1CCN(c1ccc(C(=O)N3CCNC(=O)C3)cn1)C2
201
